pIC50 tested on acetylcholinesterase (AChE) from electric eel (Electrophorus electricus): recorded values
Sequence (O42275 24-633): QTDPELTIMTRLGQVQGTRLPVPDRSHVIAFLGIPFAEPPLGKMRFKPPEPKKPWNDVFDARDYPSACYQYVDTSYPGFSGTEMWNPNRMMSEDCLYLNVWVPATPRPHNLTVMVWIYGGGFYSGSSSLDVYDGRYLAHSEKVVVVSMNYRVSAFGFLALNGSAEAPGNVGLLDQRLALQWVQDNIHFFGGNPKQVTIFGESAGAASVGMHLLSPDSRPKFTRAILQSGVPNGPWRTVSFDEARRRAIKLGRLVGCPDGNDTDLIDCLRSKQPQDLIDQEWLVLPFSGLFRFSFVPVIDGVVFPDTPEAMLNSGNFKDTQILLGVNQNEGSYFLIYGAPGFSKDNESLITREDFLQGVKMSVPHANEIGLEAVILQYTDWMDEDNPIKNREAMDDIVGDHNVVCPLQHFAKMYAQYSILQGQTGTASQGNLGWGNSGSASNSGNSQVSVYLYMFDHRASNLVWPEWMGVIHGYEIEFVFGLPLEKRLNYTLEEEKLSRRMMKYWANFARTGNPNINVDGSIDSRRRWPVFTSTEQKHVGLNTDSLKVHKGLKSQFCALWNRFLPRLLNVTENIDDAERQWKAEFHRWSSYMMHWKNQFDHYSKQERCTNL
Remember the convention: pIC50 equals -log10 of concentration in molar.

Past entries and their recorded results:
CCCCCCNC(=O)Oc1ccc(Cl)cc1C(=O)Nc1ccc(Cl)c(Cl)c1 | 4.39
CCCCNC(=O)Oc1ccc(Cl)cc1C(=O)Nc1ccc(Cl)c(Cl)c1 | 4.19
CCCCCCCCCNC(=O)Oc1ccc(Cl)cc1C(=O)Nc1ccc(Cl)cc1 | 4.28
CCCCCCNC(=O)Oc1ccc(Cl)cc1C(=O)Nc1ccc(Cl)cc1 | 4.51
CCCCCCCCCCNC(=O)Oc1ccc(Cl)cc1C(=O)Nc1ccc(Cl)cc1 | 4.19

-- ask Fill in pIC50 for record CCCCCCNC(=O)Oc1ccc(Cl)cc1C(=O)Nc1cccc(Cl)c1
-- reply 4.45

-- ask Fill in pIC50 for record CCCCCCCCCCCNC(=O)Oc1ccc(Cl)cc1C(=O)Nc1cccc(Cl)c1
-- reply 4.24

-- ask Fill in pIC50 for record CCCCCCCCCCCNC(=O)Oc1ccc(Cl)cc1C(=O)Nc1ccc(Cl)cc1
-- reply 4.35

-- ask Fill in pIC50 for record CCNC(=O)Oc1ccc(Cl)cc1C(=O)Nc1ccc(Cl)cc1
-- reply 4.23

-- ask Fill in pIC50 for record CCCCCCCNC(=O)Oc1ccc(Cl)cc1C(=O)Nc1ccc(Cl)c(Cl)c1
-- reply 4.44

----------
test: Lipophilicity determination by RP-HPLC (capacity factor k / log k)
Type: physicochemical
reported.conditions: Symmetry C18, MeOH 70% / H2O 30%, column 45 °C
Parameter log k: see the listing below.
Please respond with just the number, no unit label.

Past entries and their recorded results:
CCCCCNC(=O)Oc1ccc(Cl)cc1C(=O)Nc1ccc(Cl)c(Cl)c1 | 1.0601
CCNC(=O)Oc1ccc(Cl)cc1C(=O)Nc1cccc(Cl)c1 | 0.7523
CCCCCNC(=O)Oc1ccc(Cl)cc1C(=O)Nc1cccc(Cl)c1 | 0.7732
CCCCCCCCCCCNC(=O)Oc1ccc(Cl)cc1C(=O)Nc1ccc(Cl)c(Cl)c1 | 1.0903

-- ask Fill in log k for record CCCCCCCCCCNC(=O)Oc1ccc(Cl)cc1C(=O)Nc1ccc(Cl)cc1
-- reply 0.7942

-- ask Fill in log k for record CCCCCCNC(=O)Oc1ccc(Cl)cc1C(=O)Nc1ccc(Cl)cc1
-- reply 0.7859

-- ask Fill in log k for record CCNC(=O)Oc1ccc(Cl)cc1C(=O)Nc1ccc(Cl)c(Cl)c1
-- reply 1.0234

-- ask Fill in log k for record CCCCCCCCCCCNC(=O)Oc1ccc(Cl)cc1C(=O)Nc1cccc(Cl)c1
-- reply 0.7902

-- ask Fill in log k for record CCCCNC(=O)Oc1ccc(Cl)cc1C(=O)Nc1ccc(Cl)c(Cl)c1
-- reply 1.0457

-- ask Fill in log k for record CCCCCNC(=O)Oc1ccc(Cl)cc1C(=O)Nc1ccc(Cl)cc1
-- reply 0.7838

-- ask Fill in log k for record CCNC(=O)Oc1ccc(Cl)cc1C(=O)Nc1ccc(Cl)cc1
-- reply 0.7695

-- ask Fill in log k for record CCCCCCCCNC(=O)Oc1ccc(Cl)cc1C(=O)Nc1ccc(Cl)c(Cl)c1
-- reply 1.0845

-- ask Fill in log k for record CCCCCCCCCNC(=O)Oc1ccc(Cl)cc1C(=O)Nc1ccc(Cl)c(Cl)c1
-- reply 1.0880

-- ask Fill in log k for record CCCCNC(=O)Oc1ccc(Cl)cc1C(=O)Nc1ccc(Cl)cc1
-- reply 0.7759

-- ask Fill in log k for record CCCCCCCCCNC(=O)Oc1ccc(Cl)cc1C(=O)Nc1cccc(Cl)c1
-- reply 0.7837

-- ask Fill in log k for record CCCCNC(=O)Oc1ccc(Cl)cc1C(=O)Nc1cccc(Cl)c1
-- reply 0.7611

-- ask Fill in log k for record CCCCCCNC(=O)Oc1ccc(Cl)cc1C(=O)Nc1cccc(Cl)c1
-- reply 0.7758
